assay: protein stability index of a GFP-peptide fusion (GPS, HEK-293T) (PSI 1-6); higher = more stable; details: treatment: MLN4924 1 uM, 8 h; c terminus: a fixed tail appended;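 further: 24-mer peptide tiles fused after GFP, lentivirally expressed, FACS-sorted into six equal bins by GFP/DsRed ratio, decoded by Illumina sequencing, PSI is the read-weighted mean bin number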
Classify by measured protein stability index: class 1 if it is equal to or exceeds 4, class 0 if it is smaller.

> print(dat)
                       primary.sequence      cat
 1    SKFRRKDREDSPERCSDSDEEKKA [CLINT1]  class 1
 2    KALSRKSTSFRVYIMAFDIKSEDM [FBXO33]  class 0
 3     MCRLEELGLAGRCLTLTPRPATEA [HDAC6]  class 0
 4   DIDQMFSTLLGEMDLLTQSLGVDT [APBB1IP]  class 0
 5     VAPLADGKVAVGQDDLTVVLNEEG [VPS39]  class 1
 6     TLQDLVFDECGITDDQLLALLPSL [PRAME]  class 0
 7  MVSSVLCRCVASPPPDAAATAASS [SLC25A25]  class 0
 8      TDAPEQFISQVTVLKYFSHYMEEN [PLK2]  class 0
 9     PLVTAIEIVSIWILSFILAIPEAI [EDNRA]  class 0
10   HHAALNGHVEMVNLLLAKGANINA [ANKRD44]  class 0
11      RRTRPRHHHGRSRPDRSSQGGSLP [CHGB]  class 1
12      RDNDHPDHSSRELSKILAKLERLK [FUT8]  class 0

----------
assay: protein stability index of a GFP-peptide fusion (GPS, HEK-293T) (PSI 1-6); higher = more stable; settings: treatment: DMSO; c terminus: a fixed tail appended
Reported protein stability index values for a set of sequences
QUANTITY_KIND: protein stability index

> print(dat)
                       primary.sequence  obs.value
 1     PLVTAIEIVSIWILSFILAIPEAI [EDNRA]       3.48
 2      DEEVVATAGDRLTEFRKGAQSLPG [IRX6]       5.12
 3     NVSGLRFETQMKTLAQFPETLLGD [KCNA4]       3.53
 4     ESGKEEGMKIDLIDGKGRGVIATK [KMT5A]       5.12
 5     SQPPKKKPKTTNIELQGVPNDEVH [RBBP5]       5.32
 6      KGMVLDENYNNLANAVISVSGINH [CPN1]       3.06
 7    TQSVSECITEDGRTVAVGDIVWGK [PWWP2B]       4.09
 8   YQLADWCLHHICTNYNNVCRKFPR [RHOBTB2]       2.25
 9    LEFAYYFRPGHLLANACLPVRTTN [ZSWIM9]       2.47
10    TIFEKENFIGRQWEISDDYPSLQA [CRYBA1]       3.26
11    ESSNDFGPYEGGGPVAGLDDSGGP [ZBTB22]       5.03
12     FDIRILMAKSVKYTVNFLEAKEGD [CARM1]       2.27
13  CRETGSFLDLFRYRVLLGHTLILM [SLC22A15]       2.97
14  VGNISKDLGLAPRELAERGVRIVS [PCDHGA10]       3.57
15   DVQSMPKTGILILILSIIFIEGYC [MAGEA10]       2.86
16     PWCPHLVAVCPIPAAGLDVTQPCG [HDAC6]        2.4
17     ITKQGDGVDFLSWFLNALHSALGG [USP39]       2.22
18     SKLAQLTLEQILEHLDNLRLNLTN [INTS3]        2.3
19     TFEVPEENTAETITRVLYEVFIEW [ZBED1]       2.07
20     LEQMGALAVRGSRRERELERRELA [ZBED3]          5
21      SMSSRLSIYDNVPGSILYSSSGDL [DLC1]       3.24
22     QGEYPPGTSTWQFNFKFNLTEDMY [CNOT7]        1.9
23      DAWKRPDALPGQSKRLAVPCKLEK [TLE6]        4.2
24      GYNDYTINVWDVLKGSRVSILFGH [GNB5]       2.28

----------
Recorded protein stability index for the following sequences
assay: protein stability index of a GFP-peptide fusion (GPS, HEK-293T) (PSI 1-6); higher = more stable; settings: treatment: DMSO; c terminus: a fixed tail appended
QUANTITY_KIND: protein stability index

> print(dat)
                       primary.sequence  obs.value
 1   PYTPPATSHRRVTDVRGLEEFLSA [PLEKHN1]       3.98
 2       SSDMMDSSSFSNLDLSEEDSDDPS [VDR]       5.66
 3     AFCSSDEELEDSKALLYLPIAPEV [RBBP5]        3.7
 4    VYSDHTNTNNLTFLMDLPSAGRSM [RNF180]       2.29
 5      RPARSTLDELLGRGMATKLLARPG [FBF1]       2.61
 6     REEEDRALPENEFKKQIWLLFEYP [KCNA4]        2.7
 7     MCLFLQSLRQKQPERLCSGPGIVG [GMPPB]       2.27
 8    IRGRYLVALGHAYHPEEFVCSQCG [PDLIM7]       2.51
 9      FDIQKIMQEKNPVHVIGVEEPSVG [ZNF8]       4.07
10      IGWKTVRMYPFQIHSIALSTFASL [CDS2]       2.69
11       CRLKRCVDIGMMKEFILTDEEVQR [VDR]       2.49
12     VEFVRHGDIIRLEHKETSRNLHSH [POMT2]       3.02
13     IMELTGGGQESSGLNLGKKISVPR [MYOZ1]       3.58
14     EELEEALEVERQENEQRRLFIQKE [MNAT1]       5.05
15  SLQSTGKCLLYCNGVLEPLYLCPN [SLC25A39]       2.03
16     LGLFTLILTEPAQAQKCYRDLALV [INTS3]       3.14
17    LQQQPLCTSVNTIYDNAVQGLRRH [LRRC59]       3.66
18     PGIDIREDLAQKLNLEEDRIQIWF [HESX1]       2.55
19      ALPDSVLRRFVVRTMCAVLGLVAR [AUP1]       2.51
20    NVQTEFPGEDENPEKASELSQVEL [TRIM55]       5.48

----------
Some sequences, each annotated with its measured protein stability index.
assay: protein stability index of a GFP-peptide fusion (GPS, HEK-293T) (PSI 1-6); higher = more stable; conditions: treatment: MLN4924 1 uM, 8 h; c terminus: a fixed tail appended
QUANTITY_KIND: protein stability index

> print(dat)
                     primary.sequence            quantity.kind  obs.value
1    HAYFRGHSPSCLARVTGELTMTFP [FCHO1]  protein stability index       2.23
2    PFILPDMVGGNAVPQRTAGGDVPE [MYORG]  protein stability index       5.09
3  FWDLFRSKDNMRTRIMIGLTLVFF [SLC2A12]  protein stability index       2.67

The reported measurements were obtained from the supplement of paper PMC10567573.
